target.entity: T1, CD27 expressed on the cell surface (HT1080_CD27 cells) (human, UniProt P26842 20-260); note: test concentration or dose not given here
T1 sequence (looked up): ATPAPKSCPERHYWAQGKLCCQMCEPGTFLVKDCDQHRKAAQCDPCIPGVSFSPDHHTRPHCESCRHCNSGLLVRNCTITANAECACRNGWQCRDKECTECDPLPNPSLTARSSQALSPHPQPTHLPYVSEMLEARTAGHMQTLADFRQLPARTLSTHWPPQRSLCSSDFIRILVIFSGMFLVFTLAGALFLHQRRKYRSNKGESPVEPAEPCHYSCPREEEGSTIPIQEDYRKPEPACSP
measurement.protocol: cell-based or functional assay
reported.metric: IL-8, cross-linked by F(ab')2 fragment [abs. corr.] (abs. corr.)
Provide the reading as a plain figure in abs. corr..

# binder, unit, reported.result
rows = [
    ("P018.S.08.A.G02 (antibody, V domains shown, V regions on human Ig constant parts; also called AB27_141) VH: QSVEESGGRLVTPGTPLTLTCTVSGFSLSTYAMSWVRQAPGKGLEWIGMNTRSGIIYYASWAKGRFTISKTSTTVHLKITSPTTEDTATYFCARDLYADVSGYYLGLWGPGTLVTVSS VL: AQVLTQTPSSVSAAVGGTVTINCQASQSLYNNKNLAWYQQKPGQPPKLLIYYASTLASGVSSRFKGSGSGTQFTLTISDLESDDAATYYCQGEFICSSADCVVFGGGTAVVVK", "abs. corr.", 2.48),
]

Then this binder:
**Query** So what does the record say about IL-8, cross-linked by F(ab')2 fragment [abs. corr.] for P018.S.08.A.A01 (antibody, V domains shown, V regions on human Ig constant parts; also called AB27_135) VH: QSVEESGGRLVTPGTPLTLTCTVSGFSLNNYDMNWVRQAPGKGLEWVGYIDTGGSAYYANWVNGRFTISKTSTTVELKMTSLTASDTATYFCARGYIHGYLWGQGTLVTVSS VL: ALVMTQTPSSVSAAVGGTVTINCQASQNVYNNLAWYQQRPGQPPELLIDSASTLASGVSSRFKGSGSGTEFTLTISDLESADAATYYCQSADWESSNFFWAFGGGTEVVVK ?
**Result** 1.57
